target: T1, AAV8 (adeno-associated virus 8); experiment: SPR, AAV amine-coupled to CM5 chip;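 also: nanobodies flowed as analyte at seven concentrations spanning 1–100 nM over immobilized AAV (500–800 RU), kinetic constants derived by fitting the binding curves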
T1 construct: also called adeno-associated virus serotype 8
Some binders, each annotated with its measured pKd.
Quick note: pKd values are minus log10 of concentrations in mol/L.

BINDER | pKd
A4-074 (VHH) VHH: VQLQESGGGLVQSGGSLRLSCAASGSMFSLNTMGWYRQAPGKQRELVATITRGGGTSYADSVKGRFTISRDNAKNTVYLQMNSLRPEDTAVYYCHVDELRQSSWTTSNLWGQGTQVTVSS | 7.72
A4-060 (VHH) VHH: VQLQESGGGLVQPGGSLRLSCAASGSTFSLNTMGWYRQAPGKQREIVATVTRGGSTNYAESVKGRFTISRDNAKNTVYLQMNSLRPEDTAVYYCHVDEVRQSTWTTSNLWGQGTQVTVSS | 8.18

Please give the measured pKd for this binder: A4-073 (VHH) VHH: VQLQESGGGLVQPGGSLRLSCAASGSNFSINTMGWYRQAPGKQREMVATVTRGGSTNYGDFVKGRFTISRDNAKNTVYLQMNSLRPEDTAVYYCHVDEIRQSSWTTSNIWGQGTQVTVSS
5.94

Please give the measured pKd for this binder: A4-069 (VHH) VHH: VQLQESGGGLVQPGGSLRLSCAASGSIFTINSMGWYRQAPGKWRELVATVTRGGNTNYANSVKGRFTISRDNAKNTVYLQMNTLRPEDTAVYYCHLDEVRDSSWTTSNLWGQGTQVTVSS
7.94

Please give the measured pKd for this binder: A4-100 (VHH) VHH: VQLQESGGGLVQPGGSLRLSCAASGSIFVINTMGWYRQAPGKQRELVASLTRGGSTNYADSVKGRFTISRDNDKNTIYLQMNSLRPEDTAVYYCHVDEVRESTWTTSNIWGQGTQVTVSS
7.44

These entries and their values trace back to patent US20260193326A1.
